Below is a list of entries, each paired with its recorded pEC50 value.
Target: BRAF-GTP-KRAS-G12C complex (Homo sapiens, UniProt P01116+P62937, G12C)
Construct: 50 nM of His6-KRas G12C-GTP (1-169); 500 nM of tagless CypA (1-165)
Test: KRAS-BRAF complex disruption through competition with CYPA-compound by TR-FRET
Settings: biochemical BRAF-KRAS G12C-GTP disruption assay EC50, with CYPA
pEC50: −log10 of the molar value.

Guide cases for pEC50, answers given:
compound	assay.metric	measured.result
CC(C)[C@@H](C(=O)N[C@H]1Cc2cc(O)cc(c2)-c2cc3c(ccc(C#N)c3s2)OCCCOC(=O)[C@@H]2CCCN(N2)C1=O)N(C)C(=O)C1CN(C(=O)CCl)C1 [Compound 172]	pEC50	5.30 to 6.30
Cc1nc2ccc3cc2n1CC(O)COC(=O)C1CCCN(N1)C(=O)C(NC(=O)C(C(C)C)N(C)C(=O)C1CN(C(=O)CCl)C1)Cc1cc(O)cc-3c1 (mixture of isomers) [Compound 154]	pEC50	5.30 to 6.30
CCN1C(=O)CCN2C[C@H](C)COC(=O)[C@@H]3CCCN(N3)C(=O)[C@@H](NC(=O)[C@H](C(C)C)N(C)C(=O)C3CN(C(=O)CCl)C3)Cc3cc(O)cc(c3)-c3ccc1c2c3 [Compound 188]	pEC50	< 5.30
CC(C)[C@@H](C(=O)N[C@H]1Cc2cc(O)cc(c2)-c2ccc3c(S(C)(=O)=O)cn(c3c2)CCCOC(=O)[C@@H]2CCCN(N2)C1=O)N(C)C(=O)C1CN(C(=O)CCl)C1 [Compound 102]	pEC50	≥ 6.30
CC1CCn2cnc3ccc(cc32)-c2cc(O)cc(c2)CC(NC(=O)C(C(C)C)N(C)C(=O)C2CN(C(=O)CCl)C2)C(=O)N2CCCC(N2)C(=O)O1 (mixture of isomers) [Compound 140]	pEC50	5.30 to 6.30

Please fill in: pEC50 reported for CCN(C(=O)C1CN(C(=O)CCl)C1)[C@H](C(=O)N[C@H]1Cc2cc(O)cc(c2)-c2ccc3c(C(C)(C)C#N)cn(c3c2)CC(C)(C)COC(=O)[C@@H]2CCCN(N2)C1=O)C(C)C [Compound 65] = ≥ 6.30

# pEC50 (compound: C=CC(=O)N1CCN(C(C(=O)NC2Cc3cc(O)cc(c3)-c3ccc4c(C(C)(C)C#N)cn(c4c3)CC(C)(C)COC(=O)C3CCCN(N3)C2=O)C(C)C)C(=O)C1 (stereo not shown) [Compound 14] ) is < 5.30

Record summary for CC(C)[C@@H](C(=O)N[C@H]1Cc2cc(N)cc(c2)-c2ccc3c(C#N)cn(c3c2)CC(C)(C)COC(=O)[C@@H]2CCCN(N2)C1=O)N(C)C(=O)C1CN(C(=O)CCl)C1 [Compound 230] : reported pEC50 = 5.30 to 6.30

C=CS(=O)(=O)N1CCN([C@H](C(=O)N[C@H]2Cc3cc(O)cc(c3)-c3ccc4nc(C)n(c4c3)CC(C)(C)COC(=O)[C@@H]3CCCN(N3)C2=O)C(C)C)C1=O [Compound 152] has a reported pEC50 of ≥ 6.30

// pEC50 value for C=CC(=O)N1CCC(C(=O)N(C)C(C(=O)NC2Cc3cc(O)cc(c3)-c3ccc4c(c3)N(CC(C)(C)COC(=O)C3CCCN(N3)C2=O)CC4(C=CC#N)COC)C(C)C)C1 (stereo not shown) [Compound 404] : ≥ 6.30
